system: Hs578T multi-cell spheroids, viability; experiment: Anticancer human tumor Hs578T cell line growth inhibition [IpAb]; conditions: second compound 0.1 µM; first compound 0.03 µM; active compounds read low;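 further: drug exposure lasted 7 days before readout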
Measured viability, T/C, listed per entry for reference.
REPORTED_PROPERTY: viability, T/C (%)

- CC(=O)c1c(C)c2cnc(Nc3ccc(N4CCNCC4)cn3)nc2n(C2CCCC2)c1=O + CC(C)NCC(C(=O)N1CCN(c2ncnc3c2C(C)CC3O)CC1)c1ccc(Cl)cc1: 71.4
- CC(=O)c1c(C)c2cnc(Nc3ccc(N4CCNCC4)cn3)nc2n(C2CCCC2)c1=O + CCN1CCN(Cc2ccc(Nc3ncc(F)c(-c4cc(F)c5nc(C)n(C(C)C)c5c4)n3)nc2)CC1: 80.8
- Cn1cnc2c(F)c(Nc3ccc(Br)cc3Cl)c(C(=O)NOCCO)cc21 + CCN1CCN(Cc2ccc(Nc3ncc(F)c(-c4cc(F)c5nc(C)n(C(C)C)c5c4)n3)nc2)CC1: 70.6
- CC(C)(C)c1cnc(CSc2cnc(NC(=O)C3CCNCC3)s2)o1 + CCN1CCN(Cc2ccc(Nc3ncc(F)c(-c4cc(F)c5nc(C)n(C(C)C)c5c4)n3)nc2)CC1: 99.9
- Cn1cnc2c(F)c(Nc3ccc(Br)cc3Cl)c(C(=O)NOCCO)cc21 + CC(C)NCC(C(=O)N1CCN(c2ncnc3c2C(C)CC3O)CC1)c1ccc(Cl)cc1: 91.8
- CC(C)(C)c1cnc(CSc2cnc(NC(=O)C3CCNCC3)s2)o1 + CC(C)NCC(C(=O)N1CCN(c2ncnc3c2C(C)CC3O)CC1)c1ccc(Cl)cc1: 114

----------
test system: Hs578T multi-cell spheroids, viability; assay: Anticancer human tumor Hs578T cell line growth inhibition [IpAb]; details: second compound 0.01 µM; first compound 0.1 µM; active compounds read low;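 further: drug exposure lasted 7 days before readout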
REPORTED_PROPERTY: viability, T/C (%)

- CCCS(=O)(=O)Nc1ccc(F)c(C(=O)c2c[nH]c3ncc(-c4ccc(Cl)cc4)cc23)c1F + CCN1CCN(Cc2ccc(Nc3ncc(F)c(-c4cc(F)c5nc(C)n(C(C)C)c5c4)n3)nc2)CC1: 103
- Cc1nc(NC(=O)N2CCCC2C(N)=O)sc1-c1ccnc(C(C)(C)C(F)(F)F)c1 (stereo not given) + CCN1CCN(Cc2ccc(Nc3ncc(F)c(-c4cc(F)c5nc(C)n(C(C)C)c5c4)n3)nc2)CC1: 87.2
- C=CCn1c(=O)c2cnc(Nc3ccc(N4CCN(C)CC4)cc3)nc2n1-c1cccc(C(C)(C)O)n1 + CCN1CCN(Cc2ccc(Nc3ncc(F)c(-c4cc(F)c5nc(C)n(C(C)C)c5c4)n3)nc2)CC1: 86.3
- Cn1ncc(Cl)c1-c1cc(C(=O)NC(CN)Cc2cccc(F)c2)sc1Cl (stereo not given) + CCN1CCN(Cc2ccc(Nc3ncc(F)c(-c4cc(F)c5nc(C)n(C(C)C)c5c4)n3)nc2)CC1: 83.3
- Cn1ncnc1[C@H]1c2n[nH]c(=O)c3cc(F)cc(c23)N[C@@H]1c1ccc(F)cc1 + CCN1CCN(Cc2ccc(Nc3ncc(F)c(-c4cc(F)c5nc(C)n(C(C)C)c5c4)n3)nc2)CC1: 88.4

----------
tested on: Hs578T multi-cell spheroids, viability; experiment: Anticancer human tumor Hs578T cell line growth inhibition [IpAb]; conditions: second compound 0.0316 µM; first compound 0.1 µM; active compounds read low;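 further: drug exposure lasted 7 days before readout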
Measured viability, T/C, listed per entry for reference.
REPORTED_PROPERTY: viability, T/C (%)

• CCCS(=O)(=O)Nc1ccc(F)c(C(=O)c2c[nH]c3ncc(-c4ccc(Cl)cc4)cc23)c1F + CCN1CCN(Cc2ccc(Nc3ncc(F)c(-c4cc(F)c5nc(C)n(C(C)C)c5c4)n3)nc2)CC1 = 100
• Cc1nc(NC(=O)N2CCCC2C(N)=O)sc1-c1ccnc(C(C)(C)C(F)(F)F)c1 (stereo not given) + CCN1CCN(Cc2ccc(Nc3ncc(F)c(-c4cc(F)c5nc(C)n(C(C)C)c5c4)n3)nc2)CC1 = 72.3
• Cn1ncnc1[C@H]1c2n[nH]c(=O)c3cc(F)cc(c23)N[C@@H]1c1ccc(F)cc1 + CCN1CCN(Cc2ccc(Nc3ncc(F)c(-c4cc(F)c5nc(C)n(C(C)C)c5c4)n3)nc2)CC1 = 84.8
• C=CCn1c(=O)c2cnc(Nc3ccc(N4CCN(C)CC4)cc3)nc2n1-c1cccc(C(C)(C)O)n1 + CCN1CCN(Cc2ccc(Nc3ncc(F)c(-c4cc(F)c5nc(C)n(C(C)C)c5c4)n3)nc2)CC1 = 75.3
• Cn1ncc(Cl)c1-c1cc(C(=O)NC(CN)Cc2cccc(F)c2)sc1Cl (stereo not given) + CCN1CCN(Cc2ccc(Nc3ncc(F)c(-c4cc(F)c5nc(C)n(C(C)C)c5c4)n3)nc2)CC1 = 76.8
